Reference source: patent US12054475B2

# system: mALDH1a3 (Mus musculus (Mouse))
# Sequence (Q9JHW9 whole entry): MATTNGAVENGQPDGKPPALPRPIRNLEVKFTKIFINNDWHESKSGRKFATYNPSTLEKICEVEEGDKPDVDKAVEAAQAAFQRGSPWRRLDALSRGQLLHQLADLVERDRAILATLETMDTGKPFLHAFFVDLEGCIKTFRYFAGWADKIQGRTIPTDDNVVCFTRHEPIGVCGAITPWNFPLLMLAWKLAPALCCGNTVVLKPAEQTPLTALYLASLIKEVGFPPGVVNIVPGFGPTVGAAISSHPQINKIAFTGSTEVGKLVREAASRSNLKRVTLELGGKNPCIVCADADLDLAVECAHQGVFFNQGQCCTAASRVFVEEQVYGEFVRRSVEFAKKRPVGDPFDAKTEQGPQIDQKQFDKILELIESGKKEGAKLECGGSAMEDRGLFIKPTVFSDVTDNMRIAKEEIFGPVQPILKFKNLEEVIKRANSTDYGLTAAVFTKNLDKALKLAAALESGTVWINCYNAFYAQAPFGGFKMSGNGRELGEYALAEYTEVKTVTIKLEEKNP
# test_description: Aldh1a3 enzyme inhibition assay (recombinant enzyme, resorufin fluorescence)
# Assay type: biochemical
# experimental_conditions: read-out: mAldh1a3 IC50
pIC50: −log10 of the molar value.
Kindly state pIC50 for each of the entries shown.

stdin: Check mALDH1a3 (Mus musculus (Mouse)) data and give pIC50 for `Cc1cc(Nc2ncc3ccccc3n2)cc2c1NC(=O)C(C)(C)C2` .
stdout: < 5.30

stdin: Check mALDH1a3 (Mus musculus (Mouse)) data and give pIC50 for `CCc1cnc(Cl)cc1C(=O)Nc1cc(C)c2c(c1)CCC(=O)N2` .
stdout: > 7.00

stdin: Check mALDH1a3 (Mus musculus (Mouse)) data and give pIC50 for CCC1COCCN1C(=O)Nc1cc(C)c2c(c1)CCC(=O)N2 (racemic) .
stdout: < 5.30

stdin: Check mALDH1a3 (Mus musculus (Mouse)) data and give pIC50 for `CCn1cncc1C(=O)Nc1ccc2c(c1)CCC(=O)N2` .
stdout: < 5.30

stdin: Check mALDH1a3 (Mus musculus (Mouse)) data and give pIC50 for `Cc1cc(NC(=O)c2ccncc2CC2CC2)cc2c1NC(=O)CC2` .
stdout: > 7.00

stdin: Check mALDH1a3 (Mus musculus (Mouse)) data and give pIC50 for `Cc1cc(NC(=O)c2ccnc3c2CCO3)cc2c1NC(=O)CC2` .
stdout: 6.00 to 6.60

stdin: Check mALDH1a3 (Mus musculus (Mouse)) data and give pIC50 for `CCc1cnccc1C(=O)Nc1cnc2c(c1)CCC(=O)N2` .
stdout: 6.00 to 6.60

stdin: Check mALDH1a3 (Mus musculus (Mouse)) data and give pIC50 for `Cc1cc(NC(=O)c2ccncc2CC2CCC2)cc2c1NC(=O)CC2` .
stdout: 5.30 to 6.00

stdin: Check mALDH1a3 (Mus musculus (Mouse)) data and give pIC50 for `CCc1cnccc1C(=O)Nc1cc2c(c(F)c1F)NC(=O)CC2` .
stdout: > 7.00

====

# system: mALDH1a2 (Mus musculus (Mouse), UniProt Q62148)
# Sequence (Q62148 whole entry): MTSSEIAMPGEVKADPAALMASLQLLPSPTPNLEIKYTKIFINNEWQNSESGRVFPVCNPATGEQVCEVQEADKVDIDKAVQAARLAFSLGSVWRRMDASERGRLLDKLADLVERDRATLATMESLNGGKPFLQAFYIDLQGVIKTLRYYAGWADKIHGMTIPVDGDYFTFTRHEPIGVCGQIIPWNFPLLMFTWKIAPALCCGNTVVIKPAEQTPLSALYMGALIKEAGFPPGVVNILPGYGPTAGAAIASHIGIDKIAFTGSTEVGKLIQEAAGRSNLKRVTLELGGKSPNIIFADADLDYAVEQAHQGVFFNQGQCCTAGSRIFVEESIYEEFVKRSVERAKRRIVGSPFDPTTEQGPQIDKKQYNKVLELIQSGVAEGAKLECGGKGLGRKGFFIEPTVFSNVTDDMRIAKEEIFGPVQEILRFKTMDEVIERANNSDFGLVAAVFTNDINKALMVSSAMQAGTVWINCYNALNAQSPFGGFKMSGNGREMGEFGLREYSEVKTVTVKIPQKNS
# test_description: Aldh1a2 enzyme inhibition assay (recombinant enzyme, resorufin fluorescence)
Kindly state pIC50 for each of the entries shown.
FYI, pIC50 means -log10 of a concentration in mol per litre.

stdin: Identify measured pIC50 associated with `CCc1cnccc1C(=O)Nc1cnc2c(c1)CCC(=O)N2`
stdout: 5.09

stdin: Identify measured pIC50 associated with `CCc1cnccc1C(=O)Nc1ccc2c(c1)CCC(=O)N2`
stdout: 5.95

stdin: Identify measured pIC50 associated with `CCc1cnccc1C(=O)Nc1cc2c(c(F)c1F)NC(=O)CC2`
stdout: 6.23

stdin: Identify measured pIC50 associated with `CCc1cnc(Cl)cc1C(=O)Nc1ccc2c(c1)CCC(=O)N2`
stdout: 6.48

stdin: Identify measured pIC50 associated with `CCc1cnc(Cl)cc1C(=O)Nc1cc(C)c2c(c1)CCC(=O)N2`
stdout: 6.88

stdin: Identify measured pIC50 associated with `Cc1cc(NC(=O)c2ccncc2CC2CC2)cc2c1NC(=O)CC2`
stdout: 6.93

stdin: Identify measured pIC50 associated with `Cc1cc(Nc2ncc3ccccc3n2)cc2c1NC(=O)C(C)(C)C2`
stdout: 6.75

stdin: Identify measured pIC50 associated with `O=C1CCc2cc(NC(=O)c3ccncc3CC(F)(F)F)cc(Cl)c2N1`
stdout: 7.04
